- measurementNotes: chemical genetic growth profiling, strain panel (AID 1159580)
- details: S. cerevisiae deletion strains, growth OD, locus YOR070C, strain gyp1, stronger effect = lower value
Among all 5,500 compounds or so, about 2,000 (36%) were called active. Another 18% or so got no clear call; they are omitted. The other results are listed elsewhere or left out.
assayEndpoint: normalized growth
One number for each entry.

Reference cases with answers are listed next.
[
  {
    "compound": "NCCc1c[nH]c2ccccc12",
    "normalized growth": 0.982
  },
  {
    "compound": "CC(=O)N[C@@H](Cc1c[nH]c2ccccc12)C(=O)O",
    "normalized growth": 0.996
  },
  {
    "compound": "OC(c1cc(C(F)(F)F)nc2c(C(F)(F)F)cccc12)C1CCCCN1 (stereo not given)",
    "normalized growth": 1.01
  },
  {
    "compound": "COC1(C)CCC2OC2(C)CCC2C1CC2(C)C (stereo not given)",
    "normalized growth": 1.02
  }
]

Prompt: Which normalized growth reading was logged for the compound CN1C(=O)CCS(=O)(=O)C1c1ccc(Cl)cc1 (stereo not given) ?
Completion: 0.993

====

- measurementNotes: chemical genetic growth profiling, strain panel (AID 1159580)
- details: S. cerevisiae deletion strains, growth OD, locus YDR392W, strain spt3, stronger effect = lower value
The campaign covered roughly 5,500 compounds. About 2,000 (36%) were called active. About 18% were inconclusive and are not listed. The other results are listed elsewhere or left out.
# note: exactly 1 is not below, so it is 0.0; use 1.0 for normalized growth strictly under it

[
  {
    "compound": "Cc1cc(C(C)(C)C)cc(C)c1CC1=NCCN1",
    "classAssignment": 1.0
  },
  {
    "compound": "CN(C)CCc1c[nH]c2ccc(C[C@H]3COC(=O)N3)cc12",
    "classAssignment": 0.0
  },
  {
    "compound": "C=C(C)[C@@H]1CC[C@]2(CO)CC[C@]3(C)[C@H](CCC4[C@@]5(C)CC[C@H](O)C(C)(C)C5CC[C@]43C)C12 (stereo not given in full)",
    "classAssignment": 1.0
  }
]

Please look at the following compound next.
Prompt: Identify whether the compound CC(=O)[O][Hg][c]1ccccc1 records normalized growth below 1.
Completion: 1.0

====

- measurementNotes: chemical genetic growth profiling, strain panel (AID 1159580)
- details: S. cerevisiae deletion strains, growth OD, locus YGR078C, strain PAC10, stronger effect = lower value
The campaign covered roughly 5,500 compounds. About 2,000 (36%) were called active. About 18% were inconclusive and are not listed. Some of the results follow.
assayEndpoint: normalized growth
Answers are plain numbers.

Reference cases with answers are listed next.
[
  {
    "molecule": "NC(=O)CNCCC(c1ccccc1)c1ccccc1",
    "assayResult": 0.993
  },
  {
    "molecule": "CN(C(=O)Nc1ccccc1)n1cnc2ccccc2c1=O",
    "assayResult": 1.01
  },
  {
    "molecule": "CCOC(=O)c1cnc2nc(SC)nn2c1N",
    "assayResult": 0.971
  },
  {
    "molecule": "CC(=O)O[C@H]1CC[C@]2(C)C3CC(=O)[C@]4(C)C(C(C)=O)=CCC4C3CC[C@H]2C1 (stereo not given in full)",
    "assayResult": 0.983
  },
  {
    "molecule": "CNC(=O)[C@H]1O[C@@H](n2cnc3c(NCc4ccc(N)cc4)ncnc32)C(O)[C@H]1O (stereo not given in full)",
    "assayResult": 0.986
  },
  {
    "molecule": "CC(=O)c1cc2c(cc1O)OC(C)(C)C=C2",
    "assayResult": 1.01
  }
]

// each listed molecule needs a value for normalized growth
1. NC[C@H]1O[C@H](O[C@H]2C(O[C@@H]3O[C@H](CO)[C@@H](O)[C@H]3O)[C@@H](O)[C@H](N)C[C@@H]2N)[C@H](N)[C@@H](O)[C@@H]1O (stereo not given in full)
2. COc1cc2c(cc1OC)-c1c(oc3c4c(ccc3c1=O)OC(C(C)C)C4)CO2 (stereo not given)
3. Cc1ccc(N=Cc2cccs2)cc1Cl
4. CC(=O)Oc1cccc(C(=O)O)c1OC(C)=O

Completion:
1. 0.994
2. 0.982
3. 1
4. 1.01
